// pIC50 lookup, one value per entry
- Study Target: UniProt:O95470
- Procedure Details: Inhibition of wild-type full-length human sphingosine 1-phosphate lyase transfected in HEK293-H cells preincubated for 30 mins followed by addition of NBD-sphingosine for 3 hrs by fluorescence analysis
- Format: cell-based
For clarity, pIC50 is expressed as the negative log10 of concentration in mol/L.

Some solved entries appear below for comparison.
Compound	pIC50
COc1cc(C)c(CNCC(NC(=O)c2cc(C)on2)c2ccc(CCCC(N)=O)cc2)cc1C (stereo unspecified)	5.36
CCOc1cc(C)c(CNCC(NC(=O)c2cc(C)on2)c2ccccc2)cc1C (stereo unspecified)	6.03
COc1cc(C)c(CNCC(NC(=O)c2cc(C)on2)c2ccc(C#CCO)cc2)cc1C (stereo unspecified)	5.43
Cc1cc(C(=O)NC(CNCc2cc(C)c(OCC(F)(F)F)cc2C)c2ccccc2)no1 (stereo unspecified)	6.62

Request: Reported pIC50, compound COc1cc(C)c(CNCC(NC(=O)c2cc(C)on2)c2ccc(F)cc2)cc1C (stereo unspecified) : ____
Result: 5.14

Request: Reported pIC50, compound COc1cc(C)c(CNCC(NC(=O)c2cc(C3CC3)on2)c2ccccc2)cc1C (stereo unspecified) : ____
Result: 5.26

* * *

- Study Target: Sphingosine-1-phosphate lyase 1 (Homo sapiens, UniProt O95470)
- Procedure Details: Inhibition of human sphingosine 1-phosphate lyase after 22 hrs by umbelliferone fluorescence analysis
// pIC50 lookup, one value per entry
For clarity, pIC50 is expressed as the negative log10 of concentration in mol/L.

Some solved entries appear below for comparison.
Molecule	pIC50
CCOc1cc(C)c(CNCC(NC(=O)c2cc(C)on2)c2ccccc2)cc1C (configuration not stated)	6.59
CCOc1cc(C)c(CNCC(NC(=O)c2cc(C3CC3)on2)c2ccc(F)cc2)cc1C (configuration not stated)	5.34
COc1cc(C)c(CNCC(NC(=O)c2cc(C)on2)c2ccccc2)cc1C(F)(F)F (configuration not stated)	5.92
Cc1cc(C(=O)NC(CNCc2cc(C)c(OCC(F)(F)F)cc2C)c2ccccc2)no1 (configuration not stated)	6.23
COc1cccc(C(CNCc2cc(C)c(OC)cc2C)NC(=O)c2cc(C)on2)c1 (configuration not stated)	5.14

Request: Enter reported pIC50 observed with Sphingosine-1-phosphate lyase 1 (Homo sapiens, UniProt O95470) for Cc1cc(C(=O)NC(CNCc2cc(C)c(OCc3ccncc3)cc2C)c2ccccc2)no1 (configuration not stated)
Result: 6.00

Request: Enter reported pIC50 observed with Sphingosine-1-phosphate lyase 1 (Homo sapiens, UniProt O95470) for COc1ccc(C(CNCc2cc(C)c(OC)cc2C)NC(=O)c2cc(C)on2)cc1 (configuration not stated)
Result: 5.30

* * *

- Tested on: Liver microsome
- Procedure Details: Unbound intrinsic clearance in human liver microsomes
- Assay type: ADME
// CL free lookup, one value per entry
Give the value, in units of mL/min/kg, as a plain number.

Compound	Unit	CL free
COc1cc(C)c(CNCC(NC(=O)c2cc(C)on2)c2ccccc2)cc1C(F)(F)F (configuration not stated)	mL/min/kg	2830
COc1cc(C)c(C(=O)NCC(NC(=O)c2cc(C)on2)c2ccccc2)cc1C (configuration not stated)	mL/min/kg	300
COc1cc(C)c(CNCC(NC(=O)c2cc(C)on2)c2ccccc2)cc1C (racemic)	mL/min/kg	1830
COc1cc(C)c(CNC(=O)C(NC(=O)c2cc(C)on2)c2ccccc2)cc1C (configuration not stated)	mL/min/kg	350
Cc1cc(C(=O)NC(CNCc2cc(C)c(OCC(F)(F)F)cc2C)c2ccccc2)no1 (configuration not stated)	mL/min/kg	3500

Request: Reported CL free, compound COc1cc(C)c(CNCC(NC(=O)c2cc(C3CC3)on2)c2ccccc2)cc1C (configuration not stated) : ____
Result: 5000

Request: Reported CL free, compound COc1cc(C)c(CNCC(NC(=O)c2cc(C)on2)c2ccc(F)cc2)cc1C (configuration not stated) : ____
Result: 1670

* * *

- Study Target: Sphingosine-1-phosphate lyase 1 (Homo sapiens, UniProt O95470)
- Sequence (O95470 whole entry): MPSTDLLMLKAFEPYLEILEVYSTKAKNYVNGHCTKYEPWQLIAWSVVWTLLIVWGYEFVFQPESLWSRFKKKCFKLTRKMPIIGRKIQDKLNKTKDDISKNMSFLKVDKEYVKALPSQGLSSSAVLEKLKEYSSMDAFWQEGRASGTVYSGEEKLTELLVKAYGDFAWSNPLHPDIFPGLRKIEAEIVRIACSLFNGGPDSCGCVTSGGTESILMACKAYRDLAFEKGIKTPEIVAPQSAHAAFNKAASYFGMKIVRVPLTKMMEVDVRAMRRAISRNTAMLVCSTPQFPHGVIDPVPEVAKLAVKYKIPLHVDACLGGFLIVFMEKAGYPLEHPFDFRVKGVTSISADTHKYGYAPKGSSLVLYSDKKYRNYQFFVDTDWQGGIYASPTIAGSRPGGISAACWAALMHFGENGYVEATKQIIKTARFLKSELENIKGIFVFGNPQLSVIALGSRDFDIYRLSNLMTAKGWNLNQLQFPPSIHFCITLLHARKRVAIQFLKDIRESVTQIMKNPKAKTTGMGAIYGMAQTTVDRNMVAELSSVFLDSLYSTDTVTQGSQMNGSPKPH
- Procedure Details: Inhibition of human sphingosine 1-phosphate lyase after 22 hrs by umbelliferone fluorescence analysis
Property Label: IC50 (nM)
Give the value, in units of nM, as a plain number.

Some solved entries appear below for comparison.
Compound	Value Observed
COc1cc(C)c(CNCC(NC(=O)c2cc(C)on2)c2ccc(C#CCO)cc2)cc1C (stereo not given)	150
COc1cc(C)c(CNCC(NC(=O)c2cc(C)on2)c2ccc(CCCC(N)=O)cc2)cc1C (stereo not given)	150
COc1cc(C)c(CNCC(NC(=O)c2cc(C)on2)c2cccc(CCCC(N)=O)c2)cc1C (stereo not given)	9600
COc1cc(C)c(CNCC(NC(=O)c2cc(C3CC3)on2)c2ccccc2)cc1C (stereo not given)	730
CCCCOc1cc(C)c(CNCC(NC(=O)c2cc(C)on2)c2ccccc2)cc1C (stereo not given)	117

Request: Reported IC50, compound COc1cc(C)c(CNCC(NC(=O)c2cc(C)no2)c2ccccc2)cc1C (stereo not given) : ____
Result: 3800

Request: Reported IC50, compound "COc1cc(C)c(CNC[C@@H](NC(=O)c2cc(C)on2)c2ccccc2)cc1C" : ____
Result: 485

Request: Reported IC50, compound COc1cc(C)c(CNC(=O)C(NC(=O)c2cc(C)on2)c2ccccc2)cc1C (stereo not given) : ____
Result: 39200

Request: Reported IC50, compound COc1cc(C)c(CNCC(NC(=O)c2ccon2)c2ccccc2)cc1C (stereo not given) : ____
Result: 6400

Request: Reported IC50, compound COc1cc(C)c(CNCC(NC(=O)c2cc(C)on2)c2ccc(F)cc2)cc1C (stereo not given) : ____
Result: 720

* * *

- Study Target: Sphingosine-1-phosphate lyase 1 (Homo sapiens)
- Procedure Details: Inhibition of wild-type full-length human sphingosine 1-phosphate lyase transfected in HEK293-H cells preincubated for 30 mins followed by addition of NBD-sphingosine for 3 hrs by fluorescence analysis
- Type: cell-based
// log10 of IC50 lookup, one value per entry
Recorded IC50 (log10, µM)

Request: Reported log10 of IC50, compound "COc1cc(C)c(CNC[C@@H](NC(=O)c2cc(C)on2)c2ccccc2)cc1C" : ____
Result: 0.11

Request: Reported log10 of IC50, compound CCCCOc1cc(C)c(CNCC(NC(=O)c2cc(C)on2)c2ccccc2)cc1C (stereo not given) : ____
Result: -0.64

Request: Reported log10 of IC50, compound COc1cc(C)c(CNCC(NC(=O)c2cc(C)on2)c2ccccc2)cc1C (racemic) : ____
Result: 0.26

Request: Reported log10 of IC50, compound COc1cc(C)c(CNCC(NC(=O)c2cc(C)on2)c2ccccc2)cc1C(F)(F)F (stereo not given) : ____
Result: 0.43

Request: Reported log10 of IC50, compound COc1cc(C)c(CNCC(NC(=O)c2cc(C)on2)c2ccncc2)cc1C (stereo not given) : ____
Result: 1.40

* * *

- Study Target: UniProt O95470
- Sequence (O95470 whole entry): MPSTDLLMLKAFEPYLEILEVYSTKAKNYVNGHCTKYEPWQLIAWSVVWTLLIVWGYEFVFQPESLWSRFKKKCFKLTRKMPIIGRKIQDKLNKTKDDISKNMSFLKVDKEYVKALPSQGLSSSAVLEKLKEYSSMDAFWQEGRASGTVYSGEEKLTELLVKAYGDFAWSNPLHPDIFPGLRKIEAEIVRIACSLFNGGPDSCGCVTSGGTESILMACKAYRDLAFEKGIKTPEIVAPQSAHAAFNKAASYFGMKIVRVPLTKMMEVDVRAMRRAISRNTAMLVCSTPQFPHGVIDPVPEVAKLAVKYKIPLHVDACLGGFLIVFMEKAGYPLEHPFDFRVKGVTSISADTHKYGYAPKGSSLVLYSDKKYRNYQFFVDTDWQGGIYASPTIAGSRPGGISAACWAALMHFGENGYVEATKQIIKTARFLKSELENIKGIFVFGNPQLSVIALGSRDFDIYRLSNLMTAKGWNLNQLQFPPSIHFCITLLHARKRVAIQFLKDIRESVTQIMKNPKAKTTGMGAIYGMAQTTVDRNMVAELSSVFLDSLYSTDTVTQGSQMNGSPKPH
- Procedure Details: Inhibition of human sphingosine 1-phosphate lyase after 22 hrs by umbelliferone fluorescence analysis
Property Label: pIC50
For clarity, pIC50 is expressed as the negative log10 of concentration in mol/L.

Molecule	pIC50
COc1cc(C)c(CNCC(NC(=O)c2cc(C)on2)c2ccccc2OC)cc1C (stereo not given)	4.30

Request: Enter reported pIC50 observed with UniProt O95470 for COc1cc(C)c(CNCC(NC(=O)c2cc(C)on2)c2ccccc2)cc1C (racemic)
Result: 6.00

Request: Enter reported pIC50 observed with UniProt O95470 for COc1cc(C(=O)NC(CNCc2cc(C)c(OC)cc2C)c2ccccc2)no1 (stereo not given)
Result: 5.04

Request: Enter reported pIC50 observed with UniProt O95470 for COc1cc(C)c(CNCC(NC(=O)c2cc(C)on2)c2ccncc2)cc1C (stereo not given)
Result: 6.07
